# Method Description: aqueous solubility in pH 7 or pH 4 citrate buffer solution
# Type: physicochemical
# Measurement Setup: citrate buffer solution, pH 4, aqueous buffer, pH 4 citrate buffer solution; read-out: pH 4 solubility
Reported Metric: solubility (µg/mL)

Please review the entries below; each comes with its answer.
Compound: CCC[S+]([O-])c1sc2nc(-c3nccs3)cc(-c3nccn3C)c2c1N (stereo not shown) [SW 209280]
Observed Measurement: 88

Compound: CCCC[S+]([O-])c1sc2nc(-c3nccs3)cc(-c3ccc(OCCO)cc3)c2c1N (stereo not shown) [SW 211688]
Observed Measurement: 1180

Compound: CCCC[S+]([O-])c1sc2nc(-c3nccs3)cc(-c3cnc(C)n3C)c2c1N (stereo not shown) [SW 209415]
Observed Measurement: 241

Compound: CCCC[S+]([O-])c1sc2nc(-c3nccs3)cc(-c3nccn3C)c2c1N (stereo not shown) [SW 209125]
Observed Measurement: 31.6

Compound: CCCC[S+]([O-])c1sc2nc(-c3nc(C)cs3)cc(-c3cnc(C)n3C)c2c1N (stereo not shown) [SW 217779]
Observed Measurement: 597

Compound: CCCC[S+]([O-])c1sc2nc(-c3nccs3)cc(-c3cccnc3)c2c1N (stereo not shown) [SW 208777]
Observed Measurement: 3.8

(a) CCCC[S+]([O-])c1sc2nc(-c3nccs3)cc(-c3cnc(C4CC4)n3C)c2c1N (single isomer, unassigned) [SW 212345]
(b) CC(C)[S+]([O-])c1sc2nc(-c3nccs3)cc(-c3cccnc3)c2c1N (stereo not shown) [SW 208778]
Q: Between a and b , whose recorded solubility is greater? Lab note: record the label of whichever item you select.
Result: a
(a: 164 µg/mL, b: 26 µg/mL)

###

# Method Description: aqueous solubility in pH 7 or pH 4 citrate buffer solution
# Type: physicochemical
# Measurement Setup: citrate buffer solution, pH 7, aqueous buffer, pH 7 citrate buffer solution; read-out: pH 7 solubility
Reported Metric: solubility (µg/mL)

Molecule: CC(C)[S+]([O-])c1sc2nc(-c3nccs3)cc(-c3nccn3C)c2c1N (stereo not shown)
solubility / µg/mL: 37.7

(A) CCCC[S+]([O-])c1sc2nc(-c3nccs3)cc(-c3cccc(CO)c3)c2c1N (stereo not shown)
(B) CCCC[S+]([O-])c1sc2nc(-c3nccs3)cc(-c3cnc(C)n3C)c2c1N (stereo not shown)
Q: Between A and B , whose recorded solubility is greater? Lab note: record the label of whichever item you select.
Result: B
(B: 54.3 µg/mL, A: 5.9 µg/mL)

(I) CCCC[S+]([O-])c1sc2nc(-c3nccs3)cc(-c3cnc(C4CC4)n3C)c2c1N (single isomer, unassigned)
(II) CCC[S+]([O-])c1sc2nc(-c3nccs3)cc(-c3nccn3C)c2c1N (stereo not shown)
(III) CC(C)[S+]([O-])c1sc2nc(-c3ncco3)cc(-c3ccccc3)c2c1N (stereo not shown)
(IV) CCCC[S+]([O-])c1sc2nc(-c3nccs3)cc(-c3ccc(OCCOC(=O)CCC(=O)O)cc3)c2c1N (stereo not shown)
Q: # rank by solubility, ascending (min first) As an answer, provide the labels arranged in the order called for.
Result: I, III, II, IV

(I) CCCC[S+]([O-])c1sc2nc(-c3nccs3)cc(-c3cccnc3)c2c1N (stereo not shown)
(II) CCCC[S+]([O-])c1sc2nc(-c3nccs3)cc(-c3ccc(C(C)O)cc3)c2c1N (stereo not shown)
(III) CCCC[S+]([O-])c1sc2nc(-c3nccs3)cc(-c3cncn3C)c2c1N (stereo not shown)
(IV) CCCC[S+]([O-])c1sc2nc(-c3ncco3)cc(-c3ccccc3)c2c1N (stereo not shown)
Q: Arrange the 4 molecules from largest to smallest solubility. As an answer, provide the labels arranged in the order called for.
Result: III, II, I, IV

(I) CC(C)[S+]([O-])c1sc2nc(-c3nccs3)cc(-c3cccnc3)c2c1N (stereo not shown)
(II) COCC[S+]([O-])c1sc2nc(-c3nccs3)cc(-c3nccs3)c2c1N (stereo not shown)
(III) CCCC[S+]([O-])c1sc2nc(-c3nccs3)cc(-c3ccc(OCCO)cc3)c2c1N (stereo not shown)
(IV) CCCC[S+]([O-])c1sc2nc(-c3cccs3)cc(C)c2c1N (stereo not shown)
(V) CCCC[S+]([O-])c1sc2nc(-c3nc(C)cs3)cc(-c3cnc(C)n3C)c2c1N (stereo not shown)
Q: Arrange the 5 molecules from largest to smallest solubility. As an answer, provide the labels arranged in the order called for.
Result: III, V, I, II, IV

(1) Cc1cc(-c2nccs2)nc2sc([S+]([O-])C(C)C)c(N)c12 (stereo not shown)
(2) CCCC[S+]([O-])c1sc2nc(-c3nccs3)ccc2c1N (stereo not shown)
Q: Could you determine which record has the numerically smaller solubility? Candidates: 1 and 2 Lab note: record the label of whichever item you select.
Result: 2

###

# Method Description: aqueous solubility in pH 7 or pH 4 citrate buffer solution
# Format: physicochemical
# Measurement Setup: aqueous buffer; pH 7 citrate buffer solution; read-out: pH 7 solubility
Reported Metric: solubility (µg/mL)
// units = µg/mL; emit number, no label

Q: What solubility value was documented for this compound, CCCC[S+]([O-])c1sc2nc(-c3nccs3)cc(-c3ccc(COC(=O)NCCCl)cc3)c2c1N (stereo not shown) [SW 213064] ?
Result: 8.27

###

# Target Entity: recombinant 15-PGDH (Homo sapiens, UniProt P15428)
# Sequence (P15428 whole entry): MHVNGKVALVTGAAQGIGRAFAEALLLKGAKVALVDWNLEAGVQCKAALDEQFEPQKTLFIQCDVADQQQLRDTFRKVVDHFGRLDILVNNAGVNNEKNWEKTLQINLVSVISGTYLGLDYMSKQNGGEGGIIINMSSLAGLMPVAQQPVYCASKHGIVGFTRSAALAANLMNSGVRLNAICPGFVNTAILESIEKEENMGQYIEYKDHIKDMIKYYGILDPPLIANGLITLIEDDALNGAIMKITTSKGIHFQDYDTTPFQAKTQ
# Method Description: IC50 for inhibiting enzymatic activity of recombinant 15-PGDH in an in vitro assay
# Type: biochemical
# Measurement Setup: Enzyme Inhibitor IC50 (nM) at 5 nM 15-PGDH, recombinant human 15-PGDH at 5 nM, in vitro
Reported Metric: IC50 (nM)

Please review the entries below; each comes with its answer.
Compound: CCCC[S+]([O-])c1sc2nc(-c3cccs3)cc(-c3ccccc3)c2c1NC(=O)OC (stereo not shown)
Target Entity: recombinant 15-PGDH (Homo sapiens, UniProt P15428)
Observed Measurement: 1380
//
Compound: CCCC[S+]([O-])c1sc2nc(-c3nccs3)cc(-c3ocnc3C)c2c1N (stereo not shown)
Target Entity: recombinant 15-PGDH (Homo sapiens, UniProt P15428)
Observed Measurement: 4.5
//
Compound: CCCC[S+]([O-])c1sc2nc(-c3nccs3)cc(-c3cnc(OC)n3C)c2c1N (stereo not shown)
Target Entity: recombinant 15-PGDH (Homo sapiens, UniProt P15428)
Observed Measurement: 19
//
Compound: Nc1c(C(=O)N2CCCCC2)sc2nc(-c3cccs3)cc(-c3ccccc3)c12
Target Entity: recombinant 15-PGDH (Homo sapiens, UniProt P15428)
Observed Measurement: 41
//
Compound: CCCC[S+]([O-])c1sc2nc(-c3nccs3)cc(-c3ccc(CNC(=O)NCCO)cc3)c2c1N (stereo not shown)
Target Entity: recombinant 15-PGDH (Homo sapiens, UniProt P15428)
Observed Measurement: 2.8
//
Compound: CCCC[S+]([O-])c1sc2nc(-c3nccs3)cc(-c3ccc(CNC(=O)CN(C)C)cc3)c2c1N (stereo not shown)
Target Entity: recombinant 15-PGDH (Homo sapiens, UniProt P15428)
Observed Measurement: 5

(1) COCC[S+]([O-])c1sc2nc(-c3nccs3)nc(-c3ccccc3)c2c1N (stereo not shown)
(2) CCCC[S+]([O-])c1sc2nc(-c3nccs3)cc(-c3ccc(C(C)O)cc3)c2c1N (stereo not shown)
Q: Could you determine which record has the numerically smaller IC50? Candidates: 1 and 2 Lab note: record the label of whichever item you select.
Result: 2

(P) CCCC[S+]([O-])c1sc2nc(-c3ncc(C)s3)cc(-c3cnc(C)n3C)c2c1N (stereo not shown)
(Q) CCCC[S+]([O-])c1sc2nc(-c3nccs3)cc(-c3scnc3C)c2c1N (stereo not shown)
Q: Between P and Q , whose recorded IC50 is greater? Lab note: record the label of whichever item you select.
Result: P

(a) CCCC[S+]([O-])c1sc2nc(-c3nccs3)cc(-c3nccn3CC)c2c1N (stereo not shown)
(b) CCCC[S+]([O-])c1sc2nc(-c3nccs3)cc(-c3ccc(CC(=O)OC)cc3)c2c1N (stereo not shown)
Q: Between a and b , whose recorded IC50 is greater? Lab note: record the label of whichever item you select.
Result: b

(a) CCCC[S+]([O-])c1sc2nc(-c3nccs3)cc(-c3cnnn3C)c2c1N (stereo not shown)
(b) CCCC[S+]([O-])c1sc2nc(-c3nccs3)cc(-c3ccc(COCCO)cc3)c2c1N (stereo not shown)
Q: Could you determine which record has the numerically smaller IC50? Candidates: a and b Lab note: record the label of whichever item you select.
Result: b

(1) CCCC[S+]([O-])c1sc2nc(-c3nccs3)cc(-c3ncn(C)c3C)c2c1N (stereo not shown)
(2) CCCNS(=O)(=O)c1sc2nc(-c3cccs3)cc(-c3ccccc3)c2c1N
Q: Could you determine which record has the numerically smaller IC50? Candidates: 1 and 2 Lab note: record the label of whichever item you select.
Result: 1
(1: 3.8 nM, 2: 113 nM)

(A) CCCC[S+]([O-])c1sc2nc(-c3nccs3)cc(-c3ccc(OCCF)cc3)c2c1N (stereo not shown)
(B) COCC[S+]([O-])c1sc2nc(-c3nccs3)cc(-c3nccs3)c2c1N (stereo not shown)
Q: Could you determine which record has the numerically smaller IC50? Candidates: A and B Lab note: record the label of whichever item you select.
Result: A
(A: 3.2 nM, B: 5.7 nM)
